Parameter morphology score: see the listing below.
system: Vero E6 infected with SARS-CoV-2; assay: morphology score (similarity to uninfected cells); higher = more like uninfected cells; conditions: 24 h
Write the number on its own, no unit after it.

O=C(NCCNCC(O)COc1ccc(O)cc1)N1CCOCC1 (configuration not stated) [xamoterol] (10 µM) ... 0.0295

**Query** Consider the compound shown here: O=C1NC(=O)c2cc(Nc3ccccc3)c(Nc3ccccc3)cc21 (10 µM) What is its recorded morphology score?
**Result** 0.39

**Query** Which morphology score value is on record for Nc1nnc(-c2cccc(Cl)c2Cl)c(N)n1 [lamotrigine] (10 µM) ?
**Result** 0.0194

**Query** Looking for the measured morphology score of Clc1cccc(-n2nnnc2NCc2ccccc2Oc2ccccn2)c1Cl (10 µM) , can you help?
**Result** -0.0586

###

system: Vero E6 infected with SARS-CoV-2; assay: inhibition of SARS-CoV-2 cytopathic effect; higher = more antiviral protection, active = above 15; conditions: 1 nM; 48 h
readout kind: inhibition of SARS-CoV-2 cytopathic effect (%)
Please state the figure in %; there is no need to write the unit.

C=CC(N)CCC(=O)O (stereo not given) ... -9.39
CCN1CCC[C@H]1CNC(=O)c1c(O)c(Cl)cc(Cl)c1OC [raclopride] ... -5.41
CCCCCCCCNC(C)C(O)c1ccc(SC(C)C)cc1 (stereo not given) ... 0.05
CCCC(CCC)C(=O)Nc1ccn([C@@H]2O[C@H](CO)[C@@H](O)C2(F)F)c(=O)n1 ... -0.06

Here's the next entry for you.
**Query** // map `CC(=O)c1ccc2c(c1)N(CCCN1CCN(CCO)CC1)c1ccccc1S2` to recorded inhibition of SARS-CoV-2 cytopathic effect (system: Vero E6 infected with SARS-CoV-2)
**Result** 1.65

###

test system: Vero E6 infected with SARS-CoV-2; experiment: inhibition of SARS-CoV-2 cytopathic effect; higher = more antiviral protection, active = above 15; conditions: 833.33 nM; 48 h
readout kind: inhibition of SARS-CoV-2 cytopathic effect (%)
Value expressed in %; do not type the unit.

Solved cases below.
CCCN1CCC[C@@H]2Cc3n[nH]cc3C[C@H]21 [quinpirol-(-)] ... -2.24
CCOc1cc(N)c(Cl)cc1C(=O)NCC1CN(Cc2ccc(F)cc2)CCO1 (centres undefined) [mosapride] ... 2.51
COC(=O)c1cc(OC)c2c(c1-c1c(CO)cc(OC)c3c1OCO3)OCO2 [bicyclol] ... -0.4
COc1cc2ncnc(Nc3ccc(F)c(Cl)c3)c2cc1OCCCN1CCOCC1 [gefitinib] ... -11.2
c1cc2c3c(c1)c1c(n3CCNC2)CCCC1 ... 0.21
O=c1oc2ccccc2c(O)c1Cc1c(O)c2ccccc2oc1=O [dicoumarol] ... 1.35
N#CC(=C(/N)Sc1ccccc1N)/C(C#N)=C(/N)Sc1ccccc1N ... -3.9
O=C1NCN(c2ccccc2)C12CCN(CCCC(c1ccc(F)cc1)c1ccc(F)cc1)CC2 [fluspirilene] ... -5.63

**Query** # query: inhibition of SARS-CoV-2 cytopathic effect | item COc1cc2ncnc(Nc3ccc(Oc4ccccc4)cc3)c2cc1OC [SRC-kinase-inhibitor-I] | system: Vero E6 infected with SARS-CoV-2
**Result** -4.38

###

test system: Vero E6 infected with SARS-CoV-2; assay: inhibition of SARS-CoV-2 cytopathic effect; higher = more antiviral protection, active = above 15; conditions: 8.33 nM; 48 h
Below, each of the compounds is paired with its reported inhibition of SARS-CoV-2 cytopathic effect value.
Reply numerically in %, unit not repeated.

See these solved cases before continuing.
Oc1cccc(Nc2ncc(F)c(Nc3cccc(O)c3)n2)c1 ... 0.2
CC1(CN)Cc2ccccc2C1 ... -3.63
N=C(C[C@@H](O)COc1ccccc1-c1ccccc1)N1CCCCC1 ... -4.99
C/C=C1/[C@H](O[C@@H]2O[C@H](CO)[C@@H](O)[C@H](O)[C@H]2O)OC=C(C(=O)OC)[C@H]1CC(=O)OCCc1ccc(O)c(O)c1 ... -0.2

**Query** So what's the measured inhibition of SARS-CoV-2 cytopathic effect for this one? NC(=O)NO [hydroxyurea]
**Result** -0.23

###

tested on: Vero E6 infected with SARS-CoV-2; test: morphology score (similarity to uninfected cells); higher = more like uninfected cells; details: 24 h
Some molecules, each annotated with its measured morphology score.
Note: the reply should be a number with no unit written.

Cc1ccc2c(c1)C(=O)[C@]1(O)CCN(c3ccccc3)C1=N2 (racemic) [blebbistatin-(+/-)] (10 µM) ... 0.464
C[C@]12CC[C@@H](O)C[C@H]1CC[C@@H]1[C@@H]2CC[C@]2(C)C(=O)CC[C@@H]12 [3-alpha-hydroxy-5-beta-androstan-17-one] (10 µM) ... 0.223

Let us examine a further case.
**Query** Tell me the measured morphology score of CC(C)Nc1nc2cc(Cl)c(Cl)cc2n1[C@H]1O[C@@H](CO)[C@H](O)[C@@H]1O [maribavir] (10 µM) , please.
**Result** -0.0681

###

system: Vero E6 infected with SARS-CoV-2; assay: inhibition of SARS-CoV-2 cytopathic effect; higher = more antiviral protection, active = above 15; settings: 10000 nM; 48 h
readout kind: inhibition of SARS-CoV-2 cytopathic effect (%)
Numbers only here, please. The scale is %.

Record excerpt, results attached:
Cn1cnc(N)c2ncnc1-2 [3-methyladenine] ... -1.76
CN[C@@H](C)C(=O)N[C@H]1CCCC[C@H]2CC[C@@H](C(=O)N[C@@H](c3ccccc3)c3cn(CCCCc4ccc(CCCCn5cc([C@@H](NC(=O)[C@@H]6CC[C@@H]7CCCC[C@H](NC(=O)[C@H](C)NC)C(=O)N76)c6ccccc6)nn5)cc4)nn3)N2C1=O ... -13.1
C[N+](C)(C)CCCCCCCCCC[N+](C)(C)C [decamethonium] ... -1.94
CC(=O)CC(=O)O [lithium-acetoacetate] ... 0.27
C1CCN2C[C@@H]3C[C@@H](CN4CCCC[C@@H]34)[C@H]2C1 [sparteine-sulfate] ... -2.55
O=C(c1ccc(F)cc1)N1CCC[C@H](c2nc(-c3ccc(F)cc3)no2)C1 ... 2.44
COc1cc(OCc2cccc(-c3ccccc3)c2C)cc(OC)c1CN1CCCC[C@H]1C(=O)O [PD1-PDL-inhibitor-1] ... 0.4
CCOC(=O)N1c2ccc(C(F)(F)F)cc2[C@@H](N(Cc2cc(C(F)(F)F)cc(C(F)(F)F)c2)C(=O)OC)C[C@H]1CC ... 1.77

**Query** I'd like to know its inhibition of SARS-CoV-2 cytopathic effect. The molecule in question is `CC(C)OC(=O)N1CCC(Oc2ncnc3c2cnn3-c2ccc(S(C)(=O)=O)cc2F)CC1`
**Result** -1.25

###

test system: Vero E6 infected with SARS-CoV-2; test: inhibition of SARS-CoV-2 cytopathic effect; higher = more antiviral protection, active = above 15; settings: 1 nM; 48 h
As shown below, each of these compounds has a reported inhibition of SARS-CoV-2 cytopathic effect value.
Field format: number, assumed %, no unit text.

Examples with their reported inhibition of SARS-CoV-2 cytopathic effect follow.
CCCN(CCc1cccs1)[C@H]1CCc2c(O)cccc2C1 ... 0.32
CC1CCN(C(c2ccc(F)cc2)c2ccc(C(C)C(=O)O)cc2-c2ccc(C(F)(F)F)cc2)CC1 (stereo not given) ... 3.01

**Query** Write down the reported inhibition of SARS-CoV-2 cytopathic effect of `O=C1c2ccccc2-c2n[nH]c3cccc1c23` , test system: Vero E6 infected with SARS-CoV-2.
**Result** -4.36

**Query** Param readout= inhibition of SARS-CoV-2 cytopathic effect; system= Vero E6 infected with SARS-CoV-2; entry= O=C1CS[C@@H](c2ccccc2Cl)c2cc(Cl)ccc2N1 (racemic) ; returns value.
**Result** 1.66

**Query** Param readout = inhibition of SARS-CoV-2 cytopathic effect; param system = Vero E6 infected with SARS-CoV-2; param query = `Nc1nc2c(ncn2COC(CO)CO)c(=O)[nH]1` ; response: value
**Result** 0.29

###

Recorded measurements of inhibition of SARS-CoV-2 cytopathic effect, one per entry
tested on: Vero E6 infected with SARS-CoV-2; assay: inhibition of SARS-CoV-2 cytopathic effect; higher = more antiviral protection, active = above 15; settings: 833.33 nM; 48 h
Hi! Could you send only the number? It should be in %, unit omitted.

COc1cccc([C@H](O)C2CCN(CCc3ccc(F)cc3)CC2)c1OC ... -1.38
COc1cc2c(cc1OC)[C@@H](Cc1cc(OC)c(OC)c(OC)c1)[N+](C)(CCCOC(=O)CC/C=C/CCC(=O)OCCC[N+]1(C)CCc3cc(OC)c(OC)cc3[C@H]1Cc1cc(OC)c(OC)c(OC)c1)CC2 (stereo partly drawn) ... 3.32
CC(C)(C)C(=O)/C(=N/c1ccc(Cl)cc1)NNc1ccc(Cl)cc1 ... 0.66
Cc1nc2ccccc2n1Cc1ccc(Cl)cc1 ... -3.55
CC(C)(Sc1ccncc1-c1ccc(C#N)c2ccccc12)C(=O)O ... -0.34

// next entry
**Query** Form field - read-out: inhibition of SARS-CoV-2 cytopathic effect; system: Vero E6 infected with SARS-CoV-2; submitted item: `COc1cc2ncnc(Nc3cccc(Br)c3)c2cc1OC`
**Result** -11.5
